Just for reference, patent US20220056111A1 is where these values come from.

Here the recorded Kd is given for each entry.
ASSAYED_SYSTEM: SARS-CoV-2 Spike S1 protein (SARS-CoV-2, UniProt P0DTC2 16-685)
Unit nM implied. Number only.

rabbit monoclonal antibody 1A3 against the SARS-CoV-2 S1 (antibody, V domains shown) VH: QSLEESGGRLVTPGTPLTLTCTVSGFSFSSYHMGWVRQAPGEGLEWIGTLIGIAGNTYYASWAKGRFSISKTSTTVDLKMTSPTTEDTATYWCARIVTATFEFWGPGTLVTVSS VL: AQVLTQTPSPVSAAVGGTVTISCQASQSVNMNLLSWFQQKPGQPPKLLIYQASNLASGVSARFKGSGSGTQFTLTINEIQCDDAATYYCQGDMGGWMFPFGGGTEVVVTG : 0.537
rabbit monoclonal antibody 1D2 against the SARS-CoV-2 S1 (antibody, V domains shown) VH: QSVEESGGRLVTPGTSLTLTCTVSGIDIETYWMSWVRQAPGKGLEWIAIITSHDHSGYANWAEGRFTISKTSTTVTLTITDLQPSDTGTYFCAKDVGHSTYDLWGPGTLVTVSS VL: AAVLTQTPSPVSAAVGGTVTISCQSSESVLSNNRLSWYQQKPGQPPKLLIYAASTLASGVPSRFKGRGSGTQFTLTISDVQCDDAAMYVCAGAFSGSSDTRAFGGGTEVVVKG : 3.55

Read the next record carefully.
Q: Consider the binder shown here: rabbit monoclonal antibody 9H1 against the SARS-CoV-2 S1 (antibody, V domains shown) VH: QSVEESGGRLVTPGTPLTLTCTVSGFSLSRYAMSWVRQAPGKGLEWIGIIVDSGHTAYASWAKGRFTISRTSTTVDLKMTSLTTEDTATYFCARETGGGAFYVFEFWGPGTVVTVSS VL: AQVLTQTPSSVSAAVGGTVTINCQASEDIYDNLVWYQQKPGQPPKLLIYDASTLAFGVSSRFRGSGSGTHFTLTMRDVQCDDAATYYCQGEFSCSSGDCTAFGGGTEVVVKG What is its recorded Kd?
Ans: 0.769
